Biological target: PAR2 (HT-29 cells, SLIGKV activation) (Homo sapiens, UniProt P55085)
Construct: host or cells: HT-29 cells
Sequence (P55085 26-397): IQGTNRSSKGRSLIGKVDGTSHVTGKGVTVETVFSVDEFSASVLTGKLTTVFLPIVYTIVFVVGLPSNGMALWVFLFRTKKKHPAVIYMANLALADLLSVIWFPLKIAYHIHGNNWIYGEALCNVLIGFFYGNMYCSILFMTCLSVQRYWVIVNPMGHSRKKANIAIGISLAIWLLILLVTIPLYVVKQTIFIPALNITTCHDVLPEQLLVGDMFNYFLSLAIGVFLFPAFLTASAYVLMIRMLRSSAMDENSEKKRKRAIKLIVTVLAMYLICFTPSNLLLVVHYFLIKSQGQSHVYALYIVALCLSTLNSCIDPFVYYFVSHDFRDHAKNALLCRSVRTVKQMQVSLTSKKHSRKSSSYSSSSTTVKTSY
Assay: Ca FLIPR TETRA assay, ANTAGONIST mode, stimulation with 8 μM SLIGKV
Format: cell-based
Conditions: HT-29 cells, antagonist mode, stimulation with 8 μM SLIGKV
Reported pIC50 values are given for each entry in this list.
Expect pIC50 as a plain number equal to -log10 of the molar concentration.

Guide cases for pIC50, answers given:
COMPOUND	SYSTEM_UNDER_TEST	MEASURED
CC1(C)C(=O)OCCN1C(=O)c1cn2nc(-c3ccc(F)cc3)cc(C(F)(F)F)c2n1 [Compound I-514]	PAR2 (HT-29 cells, SLIGKV activation) (Homo sapiens, UniProt P55085)	6.80
CC(C)(C)c1cc(-c2ccc(F)cc2)nn2cc(C(=O)N3CCN(CC#N)C(=O)C3(C)C)nc12 [Compound I-267]	PAR2 (HT-29 cells, SLIGKV activation) (Homo sapiens, UniProt P55085)	8.85
CC(C)c1cc(-c2ccc(C(F)(F)F)cc2)nn2cc(C(=O)N3CCN(C(=O)c4ncccn4)CC3(C)C)nc12 [Compound I-370]	PAR2 (HT-29 cells, SLIGKV activation) (Homo sapiens, UniProt P55085)	8.11
Cn1nnnc1N1CCN(C(=O)c2cn3nc(-c4ccc(F)cc4)cc(C(C)(C)C)c3n2)C(C)(C)C1=O [Compound I-248]	PAR2 (HT-29 cells, SLIGKV activation) (Homo sapiens, UniProt P55085)	7.25
Cc1ccc(-c2cc(C(C)(C)C)c3nc(C(=O)N4CCN(c5c[nH]cn5)C(=O)C4(C)C)cn3n2)cc1F [Compound I-360]	PAR2 (HT-29 cells, SLIGKV activation) (Homo sapiens, UniProt P55085)	8.34
Cc1ccc(-c2cc(C(C)C)c3nc(C(=O)N4CCN(C(=O)[C@H]5C[C@@](O)(C(F)(F)F)C5)CC4(C)C)cn3n2)cc1 [Compound I-263]	PAR2 (HT-29 cells, SLIGKV activation) (Homo sapiens, UniProt P55085)	8.19

Now examine the next entry.
Param item = COC(=O)CC1(C)C(=O)NCCN1C(=O)c1cn2nc(-c3ccc(F)cc3)cc(C(C)(C)C)c2n1 (stereo not shown) [Compound I-509] ; retrieve measured pIC50.
7.08

###

Target: PAR2 (HT-29 cells, trypsin activation) (Homo sapiens)
Construct: host or cells: HT-29 cells
Sequence (P55085 26-397): as above
Experiment: Ca FLIPR TETRA assay, ANTAGONIST mode, stimulation with 3.1 U/mL trypsin
Type: cell-based
Settings: HT-29 cells, antagonist mode, stimulation with 3.1 U/mL trypsin
MEASURED_METRIC: pIC50
In plain terms, pIC50 is the concentration in mol/L turned into minus its base-10 logarithm.

pIC50 lookup needed for COC1CC(C(=O)N2CCN(C(=O)c3cn4nc(-c5ccc(F)c(Cl)c5)cc(C(C)C)c4n3)C(C)(C)C2)C1 (stereo not shown) , thanks.
8.02

Which value of pIC50 has been reported for Cc1nnc(C(=O)N2CCN(C(=O)c3cn4nc(-c5ccc(C)c(F)c5)cc(C(C)C)c4n3)C(C)(C)C2)o1 in the records?
8.35

I'd like to know its pIC50. The molecule in question is CC(C)(C)c1cc(-c2ccc(F)cc2)nn2cc(C(=O)N3CCN(C(=O)C4CC(C(=O)O)C4)CC3(C)C)nc12 (stereo not shown)
8.25

Any idea what its pIC50 is? The molecule is Cc1n[nH]cc1C(=O)N1CCN(C(=O)c2cn3nc(-c4ccc(F)cc4)cc(C(C)C)c3n2)C(C)(C)C1
7.27

Consider the molecule Cc1cc(-c2cc(C(C)C)c3nc(C(=O)N4CCN(c5cn[nH]c5)C(=O)C4(C)C)cn3n2)ccc1F and give its measured pIC50.
8.74

// returns reported pIC50 for input CC1(C)C(=O)OCCN1C(=O)c1cn2nc(-c3ccc(F)cc3)cc(C(F)(F)F)c2n1
6.50

Item under review: Cc1nc(C(=O)N2CCN(C(=O)c3cn4nc(-c5ccc(C)c(F)c5)cc(C(C)C)c4n3)C(C)(C)C2)c[nH]1 . Reported pIC50?
8.49

###

Biological target: PAR2 (HT-29 cells, SLIGKV activation) (Homo sapiens)
Construct: host or cells: HT-29 cells
Test: Ca FLIPR TETRA assay, ANTAGONIST mode, stimulation with 8 μM SLIGKV
Format: cell-based
Settings: HT-29 cells, antagonist mode, 8 μM SLIGKV
Classification by IC50 | ranges: bucket A = under 4 nM, bucket B = from 4 nM up to 20 nM, bucket C = 20 nM and over

STRUCTURE_NOTATION	CLASS_NAME
CC(C)(C)c1cc(-c2ccc(F)cc2)nn2cc(C(=O)N3CCN(C(=O)CCC#N)CC3(C)C)nc12	bucket A
CC1(C)C(=O)NCCN1C(=O)c1cn2nc(-c3ccc(F)cc3)cc(-c3ccsc3)c2n1	bucket C
CC(C)(CC(=O)O)C(=O)N1CCN(C(=O)c2cn3nc(-c4ccc(F)cc4)cc(C(C)(C)C)c3n2)C(C)(C)C1	bucket A
CC(C)(C)c1cc(-c2ccc(F)cc2)nn2cc(C(=O)N3CN(Cc4ccccc4)C(=O)C3(C)C)nc12	bucket C
CC(C)(C)c1cc(-c2ccc(Cl)cc2)nn2cc(C(=O)N3CCN(C(=O)[C@H]4C[C@H](C(=O)O)C4)CC3(C)C)nc12	bucket A
CC(C)c1cc(-c2ccc(Cl)cc2)nn2cc(C(=O)N3CCN(C(=O)[C@H]4C[C@H](C(=O)O)C4)CC3(C)C)nc12	bucket B
CC(C)(C)c1cc(-c2ccc(F)cc2)nn2cc(C(=O)N3CCN(C(=O)[C@H]4CC[C@@](C)(C(=O)O)CC4)CC3(C)C)nc12	bucket A
CC1(C)C(=O)NCCN1C(=O)c1cn2nc(-c3ccc(F)cc3)cc(-c3ccncc3)c2n1	bucket C

Where would CC(C)(C)c1cc(-c2ccc(F)cc2)nn2cc(C(=O)N3CCN(C(=O)[C@H]4C[C@H](C(=O)O)C4)CC3(C)C)nc12 land among the classes by reported IC50?
bucket B

Please report the category associated with CC(C)(C)c1cc(-c2ccc(F)cc2)nn2cc(C(=O)N3CCN(C(=O)/C=C/C(=O)O)CC3(C)C)nc12 , nothing else.
bucket B

Into which category would you place CC(C)(C)c1cc(-c2ccc(F)cc2)nn2cc(C(=O)N3CCN(C(=O)CCC(=O)O)CC3(C)C)nc12 ?
bucket B

Place this molecule in its band: CC(C)(C)c1cc(-c2ccc(F)cc2)nn2cc(C(=O)N3CCN(C(=O)C4(C(=O)O)CC4)CC3(C)C)nc12
bucket C

Could you place CC(C)(C)c1cc(-c2ccc(F)cc2)nn2cc(C(=O)N3CCN(C(=O)[C@H]4C[C@@H](C(=O)O)C4)CC3(C)C)nc12 in its proper category? Many thanks.
bucket B

###

Molecular target: PAR2 (HT-29 cells, SLIGKV activation) (Homo sapiens, UniProt P55085)
Construct: host or cells: HT-29 cells
Experiment: Ca FLIPR TETRA assay, ANTAGONIST mode, stimulation with 8 μM SLIGKV
Assay type: cell-based
Settings: Table 8; reported compounds of WO2005/030773, JP2003286171, JP2004170323; HT-29 cells
pIC50: −log10 of the molar value.
Given measured pIC50, output satisfied if it is greater than or equal to 5 and not satisfied if not.

Look over these answered cases.
COMPOUND	SYSTEM_UNDER_TEST	CLASS_NAME
O=C(O)C1CCCCN(C(=O)c2cc3nc(-c4ccc(Cl)cc4)cc(C(F)(F)F)n3n2)C1 (stereo not drawn) [Compound P-611, reference compound]	PAR2 (HT-29 cells, SLIGKV activation) (Homo sapiens, UniProt P55085)	satisfied
CCOC(=O)C1CCCCN1C(=O)c1cc2nc(-c3ccccc3)cc(C(F)(F)F)n2n1 (stereo not drawn) [Compound P-604, reference compound]	PAR2 (HT-29 cells, SLIGKV activation) (Homo sapiens, UniProt P55085)	satisfied
O=C(c1cc2nc(-c3ccccc3)cc(C(F)(F)F)n2n1)N1CCCCC1 [Compound P-594, reference compound]	PAR2 (HT-29 cells, SLIGKV activation) (Homo sapiens, UniProt P55085)	satisfied
CC1CCCCN1C(=O)c1cc2nc(-c3ccc(Cl)cc3)cc(C(F)(F)F)n2n1 (stereo not drawn) [Compound P-598, reference compound]	PAR2 (HT-29 cells, SLIGKV activation) (Homo sapiens, UniProt P55085)	not satisfied
CN(CCO)C(=O)c1cc2nc(-c3ccccc3)cc(C(F)(F)F)n2n1 [Compound P-602, reference compound]	PAR2 (HT-29 cells, SLIGKV activation) (Homo sapiens, UniProt P55085)	not satisfied

Now turn to the next compound.
Given the entry O=C(O)C1CCCCN(C(=O)c2cc3nc(-c4ccc(F)cc4)cc(C(F)(F)F)n3n2)C1 (stereo not drawn) [Compound P-610, reference compound] , answer whether its pIC50 meets or surpasses 5.
satisfied

Entry source: patent US20190119282A1
